- Test system: P. falciparum 3D7 parasites
- assay-procedure: P. falciparum parasite viability assay (LDH)
- Type: cell-based
- test-parameters: Plasmodium falciparum, 3D7, 72 h, read-out: P. falciparum 3D7 EC50
pEC50: −log10 of the molar value.
measurement-type: pEC50

Task: # input compound: CCCc1c(OCC(O)COc2ccc3c(=O)cc(C(=O)O)oc3c2CCC)ccc(C(C)=O)c1O (stereo not shown) [FPL 55712, reference compound] ; wanted: its pEC50
Output: < 4.30

====

- study-system: P. falciparum Rh5 (Rh5 – basigin interaction) (Plasmodium falciparum, UniProt Q8IFM5)
- Sequence (Q8IFM5 24-526): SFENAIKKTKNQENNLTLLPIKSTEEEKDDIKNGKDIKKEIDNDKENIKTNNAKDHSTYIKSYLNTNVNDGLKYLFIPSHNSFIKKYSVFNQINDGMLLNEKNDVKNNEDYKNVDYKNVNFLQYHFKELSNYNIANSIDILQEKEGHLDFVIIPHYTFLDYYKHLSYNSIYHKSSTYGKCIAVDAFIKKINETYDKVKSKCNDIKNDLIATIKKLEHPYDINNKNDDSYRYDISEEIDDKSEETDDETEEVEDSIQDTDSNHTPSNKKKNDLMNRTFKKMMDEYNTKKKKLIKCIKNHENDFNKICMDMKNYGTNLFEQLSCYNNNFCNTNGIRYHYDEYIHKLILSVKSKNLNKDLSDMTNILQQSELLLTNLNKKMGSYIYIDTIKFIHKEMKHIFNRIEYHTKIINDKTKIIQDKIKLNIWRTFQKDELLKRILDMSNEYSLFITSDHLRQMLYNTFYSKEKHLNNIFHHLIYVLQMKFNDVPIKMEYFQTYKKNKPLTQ
- assay-procedure: biochemical
- Type: binding
- test-parameters: highest concentration tested 50 μM
measurement-type: Rh5 inhibitory activity in the AlphaScreen assay

Here is how some compounds turned out for Rh5 inhibitory activity in the AlphaScreen assay.
compound="CN1CCc2cccc3c2[C@H]1Cc1ccc(O)c(O)c1-3 [R(-)-apomorphine, reference compound]" recorded_result="not active"
compound="COCCCOc1ccnc(C[S+]([O-])c2nc3ccccc3[nH]2)c1C (stereo not drawn) [rabeprazole, reference compound]" recorded_result="not active"
compound="COc1ccc(C(=O)Nc2cccc3c(=O)cc(C(=O)O)oc23)cc1 [Compound 21]" recorded_result="No activity"
compound="O=C(Nc1cccc2c(=O)cc(C(=O)O)oc12)c1ccc(OCc2ccccc2)cc1 [Compound 15]" recorded_result="No activity"

Task: # input compound: Br.CN1CCc2cc(O)cc3c2[C@H]1Cc1ccc(O)c(O)c1-3 [R(-)-2,10,11-trihydroxyaporphine, reference compound] ; wanted: its Rh5 inhibitory activity in the AlphaScreen assay
Output: not active

Task: # input compound: CCCN1CCc2cccc3c2[C@H]1Cc1ccc(O)c(O)c1-3 [R(-)-propylnorapomorphine, reference compound] ; wanted: its Rh5 inhibitory activity in the AlphaScreen assay
Output: not active

Reference source for all entries: paper PMC7645381
